Entries with their measured Ki, system 5-hydroxytryptamine receptor 5A (Mus musculus):
Report as a plain number; the unit nM is understood.

Completed entries (count: 3):
CN1CC(C(=O)O)C=C2c3cccc4[nH]cc(c34)CC21 (centres undefined) ... 2000
CN(C)CCc1c[nH]c2ccc(O)cc12 [3-[2-(dimethylamino)ethyl]indol-5-ol] ... 2900
CN1C[C@H](C(=O)N[C@]2(C)O[C@@]3(O)[C@@H]4CCCN4C(=O)[C@H](Cc4ccccc4)N3C2=O)C=C2c3cccc4[nH]cc(c34)C[C@H]21 ... 38

Next up:
CC[C@@H](CO)NC(=O)[C@@H]1C=C2c3cccc4c3c(cn4C)C[C@H]2N(C)C1 on 5-hydroxytryptamine receptor 5A (Mus musculus) gives Ki = 500

The values you see were collected from BindingDB's records for doi:10.1016/0014-5793(95)01389-x.
